System: ATP;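 note: ATP exposure 15 min at 22 °C before imaging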
Assay: switch fluorescence ratio, 500 uM ATP over buffer (Cy3 cluster intensity, sum of 5 cycles each) (fold (ratio)); higher = stronger signal-on switching upon ATP binding; sequences stand for … in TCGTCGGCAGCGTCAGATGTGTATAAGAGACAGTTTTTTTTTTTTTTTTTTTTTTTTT…TC
Settings: aptamer strand: ATP DNA aptamer (quencher-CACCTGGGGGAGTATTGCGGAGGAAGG + anchor), 100 nM annealed; ATP concentration: 500 uM
outcome_measure: switch fluorescence ratio
Answer as a number with no unit attached.

response.value for GGACAATGAG (field: switch fluorescence ratio) = 0.998

What the record says about GTTTTCAATT : switch fluorescence ratio is 0.983

Record summary for GATTTAATTG : reported switch fluorescence ratio = 1.03

Data point: AGTAGTGCGT ; switch fluorescence ratio = 0.997

Reported switch fluorescence ratio ( TTTTTCCGTA ) = 1.02

Quick note, switch fluorescence ratio for TTGGGTATGC landed at 0.99

Just so you know, measured switch fluorescence ratio for CGCCGCTTCA came out at 1.05

# sequence AAAACGAATT ; its switch fluorescence ratio = 1.01

Notebook: AAAATAATCT , switch fluorescence ratio read as 0.979

Value of measured switch fluorescence ratio for the entry GATGTGATTA : 0.982
